Values were extracted from the supplement of paper PMC10567573.

procedure.text: protein stability index of a GFP-peptide fusion (GPS, HEK-293T) (PSI 1-6); higher = more stable;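 note: 24-mer peptide tiles fused after GFP, lentivirally expressed, FACS-sorted into six equal bins by GFP/DsRed ratio, decoded by Illumina sequencing, PSI is the read-weighted mean bin number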
experimental.context: treatment: DMSO; c terminus: a fixed tail appended
endpoint.name: protein stability index
Answer as a number with no unit attached.

Recorded protein stability index, per entry:
residue_codes="TLHGNVCSFCKRAFPSGHLLDAHI [ZNF511]" endpoint_name="protein stability index" recorded_measurement=2.81
residue_codes="SDLLNDQDLLDVIRIKLDPCHPTV [EDARADD]" endpoint_name="protein stability index" recorded_measurement=2.67
residue_codes="GVMLYTLLVGRYPFHDSDPSALFS [TRIB1]" endpoint_name="protein stability index" recorded_measurement=2.52
residue_codes="GRLILSTIRLRPRQVLCEKCKSTL [PWWP2B]" endpoint_name="protein stability index" recorded_measurement=2.2
residue_codes="LWPTPGHLSPLVVHRQLSHLYAEP [ESR2]" endpoint_name="protein stability index" recorded_measurement=2.38

Consider the additional sequence presented here.
Challenge: For the sequence shown here, FLVSTHTGEVRTARALLEDDSDTQ [PCDHGC5] , give the reported protein stability index.
Response given: 4.63
